These measurements were taken from patent US12479858B2.

# assayOverview: Plasma and tumor compound concentrations in CT26 tumor-bearing mice (LC-MS/MS)
# Format: in vivo, BALB/c mice
# setupConditions: BALB/c, mouse, tumor, intravenous; 0.375 mg/kg single i.v., 8 h (Table 3); read-out: Tumor Conc.
Where a name gives a salt, the structure may show the parent alone.
reportedEndpoint: concentration at 8 h (nM)
Numbers only, in nM.

Ask: Field request: concentration at 8 h | item: CCn1nc(C)cc1C(=O)Nc1nc2cc(C(N)=O)cc3c2n1C/C=C/Cn1c(NC(=O)c2cc(C)nn2CC)nc2cc(C(=O)N[C@H]4CC[C@H](C(=O)O)CC4)cc(c21)OCCCO3 [Compound 2, sodium salt]
Reply: 140

----------
# assayOverview: Plasma and tumor compound concentrations in CT26 tumor-bearing mice (LC-MS/MS)
# Type: in vivo, BALB/c mice
# setupConditions: BALB/c, mouse, plasma, intravenous; 0.187 mg/kg single i.v., 8 h; read-out: Plasma Conc.
Structures can show the parent of a compound that is named as a salt.
reportedEndpoint: concentration at 8 h (nM)
Answers are plain numbers, in nM.

Ask: Field request: concentration at 8 h | item: CCn1nc(C)cc1C(=O)Nc1nc2cc(C(N)=O)cc3c2n1C/C=C/Cn1c(NC(=O)c2cc(C)nn2CC)nc2cc(C(=O)N[C@H]4CC[C@H](C(=O)O)CC4)cc(c21)OCCCO3 [Compound 2, sodium salt]
Reply: 40

----------
# assayOverview: Plasma and tumor compound concentrations in CT26 tumor-bearing mice (LC-MS/MS)
# Type: in vivo, BALB/c mice
# setupConditions: BALB/c, mouse, tumor, intravenous; 0.093 mg/kg single i.v., 3.5 h; read-out: Tumor Conc.
Structures can show the parent of a compound that is named as a salt.
reportedEndpoint: concentration at 3.5 h (nM)
Answers are plain numbers, in nM.

Ask: Field request: concentration at 3.5 h | item: CCn1nc(C)cc1C(=O)Nc1nc2cc(C(N)=O)cc3c2n1C/C=C/Cn1c(NC(=O)c2cc(C)nn2CC)nc2cc(C(=O)N[C@H]4CC[C@H](C(=O)O)CC4)cc(c21)OCCCO3 [Compound 2, sodium salt]
Reply: 70

----------
# assayOverview: Plasma and tumor compound concentrations in CT26 tumor-bearing mice (LC-MS/MS)
# Format: in vivo, BALB/c mice
# setupConditions: BALB/c, mouse, tumor, intravenous; 0.375 mg/kg single i.v., 12 h (Table 4); read-out: Tumor Conc.
# Method: Pharmacokinetic and Pharmacodynamic Profiling and Estimation of Immune Cell Infiltration in Tumors Following Treatment with Compounds 2, 6, 8, 12 and 14 Serum and tumor cytokine levels and corresponding compound concentrations in mouse plasma were determined following single-dose intravenous administration in CT26 (murine colorectal carcinoma) tumor-bearing mice. […] Tumor samples were homogenized and prepared for cytokine estimation (ELISA) and compound concentration were determined by LC-MS/MS. […]
Structures can show the parent of a compound that is named as a salt.
reportedEndpoint: concentration at 12 h (nM)
One number for each entry, in nM.

Known concentration at 12 h results, listed for orientation:
{"molecule": "CCn1nc(C)cc1C(=O)Nc1nc2cc(C(N)=O)cc3c2n1C/C=C/Cn1c(NC(=O)c2cc(C)nn2CC)nc2cc(C(=O)N[C@H]4CC[C@H](C(=O)O)CC4)cc(c21)OC[C@@H](N1C2CCC1COC2)CO3 [Compound 14, sodium salt]", "endpointUnit": "nM", "concentration at 12 h": 160}
{"molecule": "CCn1nc(C)cc1C(=O)Nc1nc2cc(C(N)=O)cc3c2n1C/C=C/Cn1c(NC(=O)c2cc(C)nn2CC)nc2cc(C(=O)NCCCn4cc(C(=O)O)cn4)cc(c21)OCCCO3 [Compound 8, sodium salt]", "endpointUnit": "nM", "concentration at 12 h": 60}
{"molecule": "CCn1nc(C)cc1C(=O)Nc1nc2cc(C(N)=O)cc3c2n1C/C=C/Cn1c(NC(=O)c2cc(C)nn2CC)nc2cc(C(=O)N[C@H]4CC[C@H](c5nnn[nH]5)CC4)cc(c21)OCCCO3 [Compound 6, sodium salt]", "endpointUnit": "nM", "concentration at 12 h": 200}

Next item in the queue.
Ask: Field request: concentration at 12 h | item: CCn1nc(C)cc1C(=O)Nc1nc2cc(C(N)=O)cc3c2n1C/C=C/Cn1c(NC(=O)c2cc(C)nn2CC)nc2cc(C(=O)N[C@H]4CC[C@H](c5nnn[nH]5)CC4)cc(c21)OC[C@@H](N1C2CCC1COC2)CO3 [Compound 12, sodium salt]
Reply: 300
